# Test system: BT-549 breast
# methodNotes: NCI-60 one-dose screen, 48 h (100 = growth as untreated, 0 = no growth, -100 = all killed)
# measurementConditions: 10 µM unless noted
Compounds without any hit were thinned out: in the full panel of roughly 83,000, 20% have a hit. Calls of active or inactive are those of the source. How the source made its calls: active means growth percent below 10; inactive means the rest.
measurementKind: growth

1) CN(C)CCN1C(=O)c2cccc3c(/C=C/CN4C(=O)c5cccc6cccc(c56)C4=O)ccc(c23)C1=O ... 97% (inactive)
2) O=c1c2ccccc2c(=O)c2c1sc1c(=O)c3ccc(O)cc3c(=O)c12 ... -92.6% (active)
3) O=C(O)/C=C/C(=O)Nc1cccc(Cn2nnc3cc(Cl)c(Cl)cc32)c1 ... 80.1% (inactive)
4) COc1ccc(C(=O)Cn2c(C(=O)c3ccc(OC)cc3)nc3ccccc32)cc1 ... 31% (inactive)
5) CN1CCN(c2ccc3nc4c(nc3c2C(F)(F)F)C(=O)c2ncccc2C4=O)CC1 ... -97% (active)
6) COc1ccc(/C=C/C(=O)c2cc(OC)c(OC)c(OC)c2)cc1OCC(=O)Nc1nc2ccc(OC(F)(F)F)cc2s1 ... 25.7% (inactive)

* * *

# System: RPMI-8226 leukemia
# methodNotes: NCI-60 one-dose screen, 48 h
# measurementConditions: 10 µM unless noted
Compounds without any hit were thinned out: in the full panel of roughly 83,000, 20% have a hit. Activity calls are given as the source filed them. How the source made its calls: active means growth percent below 10; inactive means the rest.
Outcomes: 1 = active, 0 = inactive

1) COc1cc(C2C(C(=O)OCc3ccccc3)=C(C)NC(C)=C2C(=O)OCc2ccccc2)cc(OC)c1OC ... 1
2) Cc1cccc(-c2nc(Nc3ccc4ncsc4c3)c3ccccc3n2)n1 ... 0
3) CN(CCC(=O)c1ccccc1)CCC(=O)c1ccccc1 ... 0
4) CCCCC#Cc1c(I)n(C)c(=O)[nH]c1=O ... 0
5) O=C1/C(=C\c2ccccn2)c2ccccc2N1c1c(Cl)cccc1Cl ... 1
6) COc1ccc(CCN2C(=O)/C(=C/c3ccc(C4Oc5ccccc5C5CC(c6ccccc6)=NN54)cc3)SC2=S)cc1 (stereo not drawn) ... 0
7) O=C(NC1CC(F)C1)c1cc2cccnc2n1-c1ccc(Cl)c(Cl)c1 (stereo not drawn) ... 0
8) O=C(NCc1cccc(CNC(=O)Nc2nc3ccccc3[nH]2)c1)Nc1nc2ccccc2[nH]1 ... 1
9) Cc1cccc2c1C[C@@]1(C2=O)C(c2ccc(C(C)(C)C)cc2)=NOS1=O (stereo partly drawn) ... 0
10) COc1cccc(CNc2c3ccccc3nc3ccccc23)c1 ... 0
11) COC(=O)c1c2c(c(C)[n+]([O-])c1C)C(=O)C(NCc1ccc(OC)cc1)=CC2=O ... 0
12) Cn1cc(-c2csc(-c3c[nH]c4ccc(F)cc34)n2)c2ccnc(Cl)c21 ... 0
13) CC1=C(CCC(C)NCc2ccc(OCCCN3CCCCC3)cc2)C(C)(C)CCC1 (stereo not drawn) ... 1
14) CN1CCN(Cc2ccc(NC(=O)c3cncc(C#Cc4cnc(N)c5ccc(F)cc45)c3)cc2C(F)(F)F)CC1 ... 1
15) Cc1ccc(-c2nc3nc(-c4ccccc4)nc(N4CCCN(S(C)(=O)=O)CC4)c3o2)cc1 ... 0
16) O=C1/C(=C/c2ccc(O)c(O)c2)COc2ccc(-c3ccccc3)cc21 ... 1
17) Cc1nnc(-c2ccc3c(c2)nc(/C=C/c2ccccc2)n3C2CCCCC2)o1 ... 0
18) COc1ccc(C(=O)Cn2c(C(=O)c3ccc(OC)cc3)nc3ccccc32)cc1 ... 1
19) O=C(/C=C/c1cccc(Cl)c1Cl)Nc1ncc(Cc2ccccc2Cl)s1 ... 0
20) Cc1ccc(S(=O)(=O)c2nc(-c3ccccc3)oc2Sc2nc3ccccc3s2)cc1 ... 0
21) COc1ccc2c(c1)c(-c1nc(-c3c[nH]c4ncccc34)cs1)cn2CCO ... 0
22) O=P(O)(O)OCC1OC(n2cnc3c(NCc4ccco4)ncnc32)C(O)C1O (stereo not drawn) ... 1
23) [2H]C([2H])([2H])Oc1ccc(F)cc1/C=C/C(=O)/C=C(O)/C=C/c1cc(F)ccc1OC([2H])([2H])[2H] ... 0
24) Cc1c2ccncc2c(C)c2c1c1cc(CO)ccc1n2C ... 1
25) CC1(C)CC(=O)c2c(nn(-c3ccc(Br)cc3)c2-c2cn(-c3ccccc3)nc2-c2cccnc2)C1 ... 0
26) CC(=O)OC[C@]12CC[C@@H]([C@@H](C)c3nnc(-c4ccncc4)o3)[C@@H]1[C@H]1CC[C@@H]3[C@@]4(C)CC[C@H](OC(C)=O)C(C)(C)[C@@H]4CC[C@@]3(C)[C@]1(C)CC2 ... 0
27) COc1ccc(C(O)c2cc3c(N)c(C(=O)Nc4cccc(Cl)c4C)sc3nc2C)cc1 (stereo not drawn) ... 1
28) CC(C)(C)n1cc(-c2ccnc(NCCCNS(=O)(=O)c3ccc(C(F)(F)F)cc3)c2)c(-c2cccc(F)c2)n1 ... 0
29) COC(=O)C(Cc1ccccc1)NC(=O)c1ccc(NC(=O)c2[nH]c(C)c(Cl)c2Cl)c(OC(C)C)c1 (stereo not drawn) ... 0
30) CN1C(=O)/C(=C2\SC(=Nc3ccccc3)N(Nc3ccccc3)C2=O)c2ccccc21 ... 0
31) CCN(CC)c1ccc(/C=N/NC(=O)Cc2ccc(Nc3ccnc(C(F)(F)F)c3)cc2)c(O)c1 ... 0
32) Cc1ccc(CNc2ccc3nc(CCC(C)C)[nH]c3c2)cc1 ... 0
33) O=C(NNC(=O)c1ccc(NC(=O)c2ccccn2)cc1)Nc1ccc2ccccc2c1 ... 0
34) COc1cc2nc3sc(C(=O)Nc4ccc(C(=O)OC(C)C)cc4)c(C(=O)Nc4ccc(Cl)cc4C)n3c(=O)c2cc1OC ... 0
35) CC1C=CC(OC(=O)C(C)(O)CCC(O)(C(=O)OC2CC(O)C(C(C)C)CC2(C)O)C(C)C)(C(C)C)CC1 (stereo not drawn) ... 1
36) C=CC(=O)Nc1ccc(Oc2nccc(Nc3nnc(-c4ccc(C)cc4)s3)n2)cc1 ... 0
37) N=c1c(S(=O)(=O)c2ccccc2)cc2c(=O)n3ccccc3nc2n1CC1CCCO1 (stereo not drawn) ... 0
38) CCc1ccc(CCC(=O)Nc2ncc(Cc3ccccc3)s2)o1 ... 0

* * *

# System: OVCAR-8 ovarian
# methodNotes: NCI-60 one-dose screen, 48 h
# measurementConditions: 10 µM unless noted
Compounds without any hit were thinned out: in the full panel of roughly 83,000, 20% have a hit. Active and inactive are the calls of the source. Rule for the calls: active = growth percent below 10; inactive = the rest.
Outcomes: Y = active, N = inactive

1. N#C/C(=C\C=C\c1ccc(-c2cc(Cl)ccc2Cl)o1)c1nc2ccccc2s1 ... N
2. CC(=O)Oc1ccc(OC(C)=O)c2ccccc12 ... N
3. O=C(Cc1ccccc1)Nc1cccc(N=Cc2ccccc2O)c1 ... N
4. C=C1CC[C@@H]2[C@](C)(COC(C)=O)[C@H](OC(C)=O)CC[C@@]2(C)[C@@H]1CC(Nc1ccc(S(=O)(=O)NC(C)=O)cc1)C1=CCOC1=O (stereo not given in full) ... Y
5. O=C(CI)NC(=O)NC(=O)NCc1ccccc1 ... N
6. Cc1nc2sc(C(=O)Nc3cccc(Br)c3C)c(N)c2cc1C(O)c1ccccc1 (stereo not given) ... N
7. CSc1nn2c(-c3ccc4ccccc4c3)ccnc2c1C#N ... N
8. COC(=O)CC[C@@H]1O[C@@H](c2ccc(F)cc2)[C@@H](O)[C@H]1O ... N
9. CSc1nc(C)c([N+](=O)[O-])c(N)n1 ... N
10. COc1ccc(C[n+]2c3ccccc3n3c4ccc(N)cc4ccc32)c(OC)c1OC ... N
11. CN(Cc1ccccc1)c1nc(Cl)c(C2CC(c3ccccc3)=NN2c2ccccc2)s1 (stereo not given) ... N
12. O=C1c2ccccc2C(=O)C1c1ccc(Br)cc1 ... N
13. O=S(=O)(NCCCNc1nccc(-c2c(-c3cccc(F)c3)nc3occn23)n1)c1ccc(F)cc1 ... N
14. Nc1nc(N)c2c(n1)NC(c1cccc(Nc3ccnc4cc(C(F)(F)F)ccc34)c1)CC(c1ccc(Br)cc1)=N2 (stereo not given) ... N
15. O=C(NCc1cccc(CNC(=O)Nc2nc3ccccc3[nH]2)c1)Nc1nc2ccccc2[nH]1 ... Y
16. CCN1C(=O)N(CC)C2C1NN=c1s/c(=C\c3cnc(C)n3C)c(=O)n12 (stereo not given) ... N
17. Fc1ccc(Cn2cc(CSc3nc4ccccc4o3)nn2)cc1 ... N
18. O=C(Nc1ccccc1[N+](=O)[O-])c1ccc(Cl)c(Cl)c1 ... N
19. CCN1C(=O)N(CC)C2C1NN=c1s/c(=C3\C(=O)N(CC(C)C)c4ccccc43)c(=O)n12 (stereo not given) ... Y
20. Cn1c2c(c3ccc(Cl)c(Cl)c31)C(C#N)C(C)(C)NC2=O (stereo not given) ... N
21. Cc1ccc(C(=O)Nc2cccc(C#Cc3cccc4[nH]nc(N)c34)c2)cc1C(F)(F)F ... N
22. COc1ccc(/C=C(/c2ccccc2)[N+](=O)[O-])c(OC)c1 ... N
23. C[n+]1ccc(CCc2c[nH]c3ccccc23)cc1 ... N
24. O=P(O)(O)OCC1OC(n2cnc3c(NCc4ccco4)ncnc32)C(O)C1O (stereo not given) ... Y
25. CC1(C)CC(=O)c2c(nn(-c3ccc(Br)cc3)c2-c2cn(-c3ccccc3)nc2-c2cccnc2)C1 ... N
26. Cc1ccc(/C=C/C(=O)Nc2ncc(Cc3ccc(F)cc3)s2)o1 ... N
27. C=CN(C(=O)N1CCN(c2cc3c(cc2F)c(=O)c(C(=O)O)cn3C2CC2)CC1)c1nc(-c2ccc(OC)cc2)cs1 ... N
28. C[C@]1(O)CC(=O)[C@]2(O)C3=C(C=C[C@]2(O)C1)C(=O)c1c(O)cccc1C3=O ... Y
29. CC1C=CC(OC(=O)C(C)(O)CCC(O)(C(=O)OC2CC(O)C(C(C)C)CC2(C)O)C(C)C)(C(C)C)CC1 (stereo not given) ... Y
30. CCOC(=O)c1c(C)nc2c(c1N)CC(=O)N2Cc1ccc(OC)cc1 ... N
31. Cc1ccc(/C=C/C(=O)c2ccc(-n3cc(CN4CCN(c5cc6c(cc5F)c(=O)c(C(=O)O)cn6C5CC5)CC4)nn3)cc2)cc1 ... N
32. CCN1C(=O)N(CC)C2C1N=C(SCc1ccc(Cl)cc1)N2/N=C/C=C/c1ccccc1OC (stereo not given) ... N
33. CCN(CC)CCCN1C(=O)c2c(c(C)c3c(oc4ccc(O)cc43)c2C)C1=O ... Y
34. Cc1c(CC(=S)N2CCOCC2)nnn1-c1cccc(C(F)(F)F)c1 ... N
35. C/C(Cc1ccc(Cl)cc1)=C(\c1ccc(OCCCN(C)C)cc1)c1ccc(OC(=O)Cc2ccccc2)cc1 ... N
36. C=CCC(CCCC)(C(=O)OCC)C(=O)OCC ... N
37. C=C(C)[C@@H]1CC[C@]2(COC(C)=O)CC[C@]3(C)[C@H](CC[C@@H]4[C@@]5(C)CCCN(C(C)=O)C(C)(C)[C@@H]5CC[C@]43C)[C@@H]12 ... N
38. O=C1Nc2ccccc2/C1=C\c1c[nH]c2ccc(Br)cc12 ... N
39. CCCCCCCCCCCCCCCCCC1=NC(C)(C)CN1CC(C)O (stereo not given) ... N
40. COc1cc(/C=N/Nc2ccc(Br)cc2)cc(OC)c1OC ... N

Recorded values, source PubChem BioAssay (NCI).
